B1: POU domain, class 4, transcription factor 1, residues 266 to 347; numbered along this chain, Q01851 (parent)
chain: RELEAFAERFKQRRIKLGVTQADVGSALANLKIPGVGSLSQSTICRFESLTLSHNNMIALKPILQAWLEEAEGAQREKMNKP

- Variants of: B1
- PROTOCOL DETAILS: abundance fitness (aPCA) (normalised: wild type 0, dead -1); higher = more abundant; growth selection in yeast, the domain comes from the species named
- EXPERIMENTAL CONTEXT: Homo sapiens
READOUT LABEL: abundance fitness
Enter a number only.

# example entries with known answers
G73K = -0.046
I33N = -0.219
R46I = -0.971
K11R = 0.023
I63P = -0.203

Next item in the queue.
Quick one: give measured abundance fitness for A66C -0.049
